Listing of recorded permeability Pe pH 6.2 by entry.
# System: PAMPA double-sink, GIT-0 lipid, UV read-out
# experimentalDetails: artificial-membrane permeation in aqueous buffer – biophysical, double-sink PAMPA, pH 5.0/6.2/7.4, ADME assay for GPR30 and estrogen receptor ligands, late-stage follow-up (AID 602462)
# testContext: measured here: permeability at pH 6.2; stronger effect = higher value

{"columns": ["compound", "targetOrSystem", "observedResult"],
 "data": [
  ["COc1cc([N+](=O)[O-])cc2c1NC(C1CC=CCC1)C1CC=CC21 (configuration not stated)", "PAMPA double-sink, GIT-0 lipid, UV read-out", "120 10^-6 cm/s"]
]}

// next entry
## Input Which value of permeability Pe pH 6.2 has been reported for CC(=O)c1ccc2c(c1)[C@@H]1C=CC[C@@H]1[C@H](c1cc3c(cc1Br)OCO3)N2 in the records?
## Output 0 10^-6 cm/s
